# target.desc: EPHB1 (UniProt P54762)
# Sequence (P54762 whole entry, looked up): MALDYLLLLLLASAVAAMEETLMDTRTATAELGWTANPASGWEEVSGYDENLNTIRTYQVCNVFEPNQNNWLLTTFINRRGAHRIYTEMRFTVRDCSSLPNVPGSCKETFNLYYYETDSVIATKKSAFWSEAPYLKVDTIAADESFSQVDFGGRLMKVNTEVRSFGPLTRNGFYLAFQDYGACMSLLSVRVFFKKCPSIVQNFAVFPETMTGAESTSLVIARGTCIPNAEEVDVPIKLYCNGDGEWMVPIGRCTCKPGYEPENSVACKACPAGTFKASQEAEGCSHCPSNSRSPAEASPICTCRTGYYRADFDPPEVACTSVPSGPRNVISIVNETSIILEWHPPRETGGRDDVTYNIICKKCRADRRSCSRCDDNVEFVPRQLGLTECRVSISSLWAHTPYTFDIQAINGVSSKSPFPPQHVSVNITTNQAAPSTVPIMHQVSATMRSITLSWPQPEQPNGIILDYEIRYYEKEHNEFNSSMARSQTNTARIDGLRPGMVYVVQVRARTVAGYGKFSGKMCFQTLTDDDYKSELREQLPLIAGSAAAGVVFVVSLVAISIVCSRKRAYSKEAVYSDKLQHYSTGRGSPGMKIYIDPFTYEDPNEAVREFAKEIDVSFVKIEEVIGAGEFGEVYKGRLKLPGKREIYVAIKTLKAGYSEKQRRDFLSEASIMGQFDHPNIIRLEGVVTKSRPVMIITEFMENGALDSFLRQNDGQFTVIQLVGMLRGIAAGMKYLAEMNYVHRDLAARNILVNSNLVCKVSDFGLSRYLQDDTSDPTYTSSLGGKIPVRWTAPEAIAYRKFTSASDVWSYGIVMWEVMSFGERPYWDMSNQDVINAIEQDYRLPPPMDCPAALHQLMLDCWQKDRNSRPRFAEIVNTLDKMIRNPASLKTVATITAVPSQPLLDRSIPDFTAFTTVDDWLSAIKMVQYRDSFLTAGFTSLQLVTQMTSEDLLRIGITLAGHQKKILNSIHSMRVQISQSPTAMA
# measurement.description: phosphorylation enrichment, bacterial display (enrichment ratio); higher = better substrate or ligand; peptides without Tyr show the background;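 further: 11-residue human phosphosite peptides and single-mutation variants displayed on the E. coli surface, counted by deep sequencing, each peptide's frequency after selection divided by its frequency in the unselected input library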;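 further: frequency after pTyr selection over input frequency; kinase dosed for 20-30% of maximal phosphorylation in three min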
measurement.type: phosphorylation enrichment
Number, no unit, nothing else.

Could you share which phosphorylation enrichment value was measured for SVETPYGSVTF [NDRG2_Y47] ?
0.501

Could you share which phosphorylation enrichment value was measured for PVQAAYRKVVA [HBB_Y131_Q132R] ?
0.199

Could you share which phosphorylation enrichment value was measured for KWRGQYDVAIE [BTK_Y425_K430E] ?
0.441

Could you share which phosphorylation enrichment value was measured for KLQKKYGPISS [CYP17A1_Y60_Y64S] ?
0.32

Could you share which phosphorylation enrichment value was measured for TVLEPYADPYY [ZC3H18_Y367] ?
0.566

Could you share which phosphorylation enrichment value was measured for SVICTYSPALN [TP53_Y126_T123I] ?
0.59

Could you share which phosphorylation enrichment value was measured for LNTFHHAGVSA [POLR2A_Y1109_Y1109H] ?
0.632

Could you share which phosphorylation enrichment value was measured for PDSVDYPKKGF [CTSK_Y121_R122P_YF] ?
1.48

Could you share which phosphorylation enrichment value was measured for HSLHDYKEALM [ADA2_Y337] ?
0.546

Could you share which phosphorylation enrichment value was measured for KDIENHIQDGK [RAD50_Y964_Y964H] ?
0.378

Could you share which phosphorylation enrichment value was measured for QEGPEYWDLET [HLA-A_Y83_Q86L] ?
1.59

Could you share which phosphorylation enrichment value was measured for KGERGYPGTLG [COL4A1_Y348_P352L] ?
0.339

Could you share which phosphorylation enrichment value was measured for FMGVEYSSCDT [EPHA3_Y937_T933M] ?
0.683

Could you share which phosphorylation enrichment value was measured for SSLEDYVRETN [GIMAP6_Y176_G171S] ?
0.46

Could you share which phosphorylation enrichment value was measured for GGSTYYIDTNA [ACTL6A_Y69_P66S] ?
0.563

Could you share which phosphorylation enrichment value was measured for PTEAQYRFIYM [PTPN11_Y511_Q506P] ?
1.08

Could you share which phosphorylation enrichment value was measured for YLRTGYSIPYG [TGM1_Y370_V372I] ?
0.451

Could you share which phosphorylation enrichment value was measured for LVRPPYSYLAL [FOXI1_Y126_S129L] ?
0.63

Could you share which phosphorylation enrichment value was measured for DPHQQYFIAMD [TBX15_Y159_YF] ?
0.504

Could you share which phosphorylation enrichment value was measured for VPEANYTSDEE [STK33_Y439_D436E] ?
0.897

Could you share which phosphorylation enrichment value was measured for PTTKSYFPHFD [HBA1_Y43_T42S] ?
0.746

Could you share which phosphorylation enrichment value was measured for SQPASYQRRFL [PPIG_Y320_L324F] ?
0.38

Could you share which phosphorylation enrichment value was measured for HLITAYRAHGF [PDHA1_Y118] ?
0.572

Could you share which phosphorylation enrichment value was measured for WQQQSYLDFGI [CTNNB1_Y30_S33F] ?
0.635

Could you share which phosphorylation enrichment value was measured for FSGDFYRIQGR [DDR2_Y741_YF] ?
0.543

Could you share which phosphorylation enrichment value was measured for SASSSYSRSRS [SRRM4_Y549_R547S] ?
0.275

Could you share which phosphorylation enrichment value was measured for KLNNEYLELNF [MME_Y497_YF] ?
0.844

Could you share which phosphorylation enrichment value was measured for TLLPDYEDEEE [ZNF830_Y159_S154T] ?
0.925

Could you share which phosphorylation enrichment value was measured for TSNNPYFRDQA [RPGRIP1_Y846_A841T] ?
0.395

Could you share which phosphorylation enrichment value was measured for ERPGVYTNVVE [F11_Y608] ?
0.417

Could you share which phosphorylation enrichment value was measured for NGSKGYAFVHF [PABPC5_Y147_YF] ?
0.481

Could you share which phosphorylation enrichment value was measured for LGLDEYLDKLK [FMNL2_Y352] ?
0.716

Could you share which phosphorylation enrichment value was measured for PDGREYIFVDP [PDGFRA_Y572_H570R_YF] ?
0.62

Could you share which phosphorylation enrichment value was measured for RLLVLYPWTQR [HBB_Y36_V35L] ?
0.681

Could you share which phosphorylation enrichment value was measured for AGADGYDYLAP [FOXL2_Y186_G187D] ?
0.585

Could you share which phosphorylation enrichment value was measured for SVTCTYSPALT [TP53_Y126_N131T] ?
0.872

Could you share which phosphorylation enrichment value was measured for CTTSHYNFMCN [TP53_Y234_I232S_YF] ?
0.516

Could you share which phosphorylation enrichment value was measured for RRSKMYLKTRS [LPL_Y329_S325R] ?
0.448

Could you share which phosphorylation enrichment value was measured for SIKDKYVTAVF [KCNH2_Y611_L615V_YF] ?
0.48

Could you share which phosphorylation enrichment value was measured for FETSHYPASPD [CTNND2_Y1217_YF] ?
0.483

Could you share which phosphorylation enrichment value was measured for LTGIAYGLPHW [SLC22A14_Y291_S292G] ?
0.56

Could you share which phosphorylation enrichment value was measured for QKFMAYPSQGG [HLCS_Y236_L237P] ?
0.388

Could you share which phosphorylation enrichment value was measured for ESMLRYDVFGG [STOX1_Y607_E608D_YF] ?
0.445

Could you share which phosphorylation enrichment value was measured for FKIFRYTLNDN [FN1_Y1975_L1974R_YF] ?
0.518

Could you share which phosphorylation enrichment value was measured for GRLPEYNTRIA [CCDC151_Y542] ?
0.341

Could you share which phosphorylation enrichment value was measured for QSAGQYSSQGL [TNNI3K_Y788] ?
0.95

Could you share which phosphorylation enrichment value was measured for IFKAAYFGVFD [SLC25A4_Y191_R188K_YF] ?
0.587

Could you share which phosphorylation enrichment value was measured for TSFQMYDKGLV [IARS2_Y231_F227S_YF] ?
0.596

Could you share which phosphorylation enrichment value was measured for LARDMCDKEFF [MET_Y1230_Y1230C_YF] ?
0.61

Could you share which phosphorylation enrichment value was measured for GYAGKYIAMVM [CYP19A1_Y441_C437Y] ?
0.525

Could you share which phosphorylation enrichment value was measured for GNLLIYTDFGK [HGD_Y166_E168D] ?
3.06

Could you share which phosphorylation enrichment value was measured for FSPGSYERETF [NF1_Y2192] ?
0.526

Could you share which phosphorylation enrichment value was measured for YYHCTYKKRMI [CLEC12A_Y242] ?
0.525

Could you share which phosphorylation enrichment value was measured for DYYDLYGGEKK [PTPN11_Y66_F71K] ?
6.24

Could you share which phosphorylation enrichment value was measured for YAANYYKLLGN [ROR2_Y646_D644N] ?
0.566

Could you share which phosphorylation enrichment value was measured for DRLASDLDKVR [KRT10_Y160_Y160D] ?
0.372

---

So I've got a bunch of sequences here, and I need their phosphorylation enrichment values.
# target.desc: EPHB1 (UniProt P54762)
# measurement.description: phosphorylation enrichment, bacterial display (enrichment ratio); higher = better substrate or ligand; peptides without Tyr show the background
Number, no unit, nothing else.

Could you share which phosphorylation enrichment value was measured for KYWREYILSLE [GPC3_Y299] ?
0.541

Could you share which phosphorylation enrichment value was measured for LKLWDYSRGRC [WDR5B_Y239] ?
0.73

Could you share which phosphorylation enrichment value was measured for QSLEPYTKQQL [STAT3_Y640_V637L] ?
0.497

Could you share which phosphorylation enrichment value was measured for RGSQQYRALPV [TUBB8_Y281_T285P] ?
0.533

Could you share which phosphorylation enrichment value was measured for THPFLYLTLEI [MLH1_Y293_S295T] ?
0.889

Could you share which phosphorylation enrichment value was measured for FLRTGYSVPFG [TGM1_Y370_YF] ?
0.523

Could you share which phosphorylation enrichment value was measured for YEREQYADRTR [RBM4_Y355_A359T] ?
0.343

Could you share which phosphorylation enrichment value was measured for GQRDLYSGLNQ [CD3E_Y199] ?
2.25

Could you share which phosphorylation enrichment value was measured for CTIIHYNFMCN [TP53_Y234_T231I_YF] ?
0.718

Could you share which phosphorylation enrichment value was measured for VIKDKYPQARF [APTX_Y209_K211Q_YF] ?
0.436

Could you share which phosphorylation enrichment value was measured for GSCQEYTGAPF [NAXD_Y85_G81S_YF] ?
0.628

Could you share which phosphorylation enrichment value was measured for TRSFDYMEGED [FGF7_Y58_G62E_YF] ?
0.592

---

# target.desc: Fes (UniProt P07332)
# Sequence (P07332 whole entry, looked up): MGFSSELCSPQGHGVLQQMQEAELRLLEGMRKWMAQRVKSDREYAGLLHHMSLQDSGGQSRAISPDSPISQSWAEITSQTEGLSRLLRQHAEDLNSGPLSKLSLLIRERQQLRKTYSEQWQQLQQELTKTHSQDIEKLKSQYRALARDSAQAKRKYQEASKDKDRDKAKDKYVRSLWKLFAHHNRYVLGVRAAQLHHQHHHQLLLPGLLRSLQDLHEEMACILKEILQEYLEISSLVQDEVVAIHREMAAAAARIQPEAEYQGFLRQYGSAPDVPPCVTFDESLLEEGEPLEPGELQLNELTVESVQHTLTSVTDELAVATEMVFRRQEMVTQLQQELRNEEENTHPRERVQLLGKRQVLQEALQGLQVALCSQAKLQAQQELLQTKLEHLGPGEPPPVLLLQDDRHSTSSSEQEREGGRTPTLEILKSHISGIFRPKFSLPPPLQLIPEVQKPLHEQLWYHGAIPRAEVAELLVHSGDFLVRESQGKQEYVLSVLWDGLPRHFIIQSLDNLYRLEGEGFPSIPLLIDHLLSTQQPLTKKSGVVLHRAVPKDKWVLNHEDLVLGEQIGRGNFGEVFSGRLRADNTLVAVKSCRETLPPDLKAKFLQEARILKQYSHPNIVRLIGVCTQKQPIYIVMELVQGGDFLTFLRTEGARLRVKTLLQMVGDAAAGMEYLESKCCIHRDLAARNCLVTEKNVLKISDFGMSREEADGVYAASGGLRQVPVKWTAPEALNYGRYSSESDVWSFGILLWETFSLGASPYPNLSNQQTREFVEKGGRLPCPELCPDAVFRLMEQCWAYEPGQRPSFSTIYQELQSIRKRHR
# measurement.description: phosphorylation enrichment, bacterial display (enrichment ratio); higher = better substrate or ligand; peptides without Tyr show the background
Label 0.0 if phosphorylation enrichment falls below 0.8; label 1.0 in every other case.

API: above_or_equal(metric=phosphorylation enrichment, cutoff=0.8) for item NFATLYLKIFH [PDE6B_Y219_YF]
1.0

API: above_or_equal(metric=phosphorylation enrichment, cutoff=0.8) for item KKMEVYQSIAD [MYBPC3_Y548_L545M]
1.0

API: above_or_equal(metric=phosphorylation enrichment, cutoff=0.8) for item KPAFSYTSSST [SIM1_Y356]
0.0

API: above_or_equal(metric=phosphorylation enrichment, cutoff=0.8) for item KVMANYVFKAG [MAML2_Y513_M514V_YF]
0.0

API: above_or_equal(metric=phosphorylation enrichment, cutoff=0.8) for item SASSSYSRSRS [SRRM4_Y549_R547S]
0.0

API: above_or_equal(metric=phosphorylation enrichment, cutoff=0.8) for item YSNVLYRPRGP [TMIGD2_Y197_A202P]
0.0

API: above_or_equal(metric=phosphorylation enrichment, cutoff=0.8) for item DGKFSYLKVGH [GRM3_Y480_G475D_YF]
1.0

API: above_or_equal(metric=phosphorylation enrichment, cutoff=0.8) for item GDYYRSLAEVA [YWHAG_Y133_Y133S]
0.0

API: above_or_equal(metric=phosphorylation enrichment, cutoff=0.8) for item HSFQCYGQNEA [ENTPD3_Y262_R264Q]
1.0

API: above_or_equal(metric=phosphorylation enrichment, cutoff=0.8) for item IRYPPYTDWNQ [ALDH3B2_Y365_H361R]
1.0

API: above_or_equal(metric=phosphorylation enrichment, cutoff=0.8) for item ASELGYVFQAI [UROD_Y133]
1.0

API: above_or_equal(metric=phosphorylation enrichment, cutoff=0.8) for item QRMGTYGVRAA [ICAM2_Y260]
1.0

API: above_or_equal(metric=phosphorylation enrichment, cutoff=0.8) for item GSIQQYIFKQE [PRG4_Y1271_YF]
0.0

API: above_or_equal(metric=phosphorylation enrichment, cutoff=0.8) for item LINSVYGCSRQ [TMPRSS6_Y290_T287N]
1.0

API: above_or_equal(metric=phosphorylation enrichment, cutoff=0.8) for item GSRGKYSSGFH [ATM_Y332_R337H]
0.0

API: above_or_equal(metric=phosphorylation enrichment, cutoff=0.8) for item ISDNAYQYMLT [MYH7_Y162]
1.0

API: above_or_equal(metric=phosphorylation enrichment, cutoff=0.8) for item APSHAYHRGVL [ANO1_Y981_G983R]
0.0

API: above_or_equal(metric=phosphorylation enrichment, cutoff=0.8) for item EPVSDYINANI [PTPN11_Y304]
1.0

API: above_or_equal(metric=phosphorylation enrichment, cutoff=0.8) for item RRERDYTNLPS [CSF1R_Y923]
0.0

API: above_or_equal(metric=phosphorylation enrichment, cutoff=0.8) for item NTTIHYNYMCN [TP53_Y234_C229N]
1.0

API: above_or_equal(metric=phosphorylation enrichment, cutoff=0.8) for item WRVIGYHVVVW [ATP13A2_Y50]
1.0

API: above_or_equal(metric=phosphorylation enrichment, cutoff=0.8) for item QGCGIYKDFFR [PLA2G2D_Y82_S80G_YF]
1.0

API: above_or_equal(metric=phosphorylation enrichment, cutoff=0.8) for item LREIRYQGGNR [VWF_Y1570_V1565L]
0.0

API: above_or_equal(metric=phosphorylation enrichment, cutoff=0.8) for item CRAVKYLQMVD [AVPR2_Y117_G122D]
1.0

API: above_or_equal(metric=phosphorylation enrichment, cutoff=0.8) for item SGEKPYKCSEC [ZNF543_Y283]
1.0

API: above_or_equal(metric=phosphorylation enrichment, cutoff=0.8) for item GFEVVYVTEPI [HSP90AB1_Y512_M513V]
1.0

API: above_or_equal(metric=phosphorylation enrichment, cutoff=0.8) for item AQMAMYFWEMS [TRPM4_Y577_G582S]
1.0
